Experiment: clinical
Parameters: species or system healthy volunteers
Settings: human, in vivo
measured endpoint: bioavailability at 24 h

INSERT INTO results (given_smiles, value_reported) VALUES
  ('Cl.Cl.c1ccc2c(c1)CC[C@H](CNCCCNC1=NCCCN1)O2', '~35%');

Where do the numbers come from? From patent US6054462A.
